# Test system: Caco-2
# assay text: relative viability EC50 (midpoint between 100% and the lowest measured viability); higher = less toxic
# particulars: 72 h
Where a name gives a salt, the structure may show the parent alone.
# relative viability EC50 values compiled below

compound	assayed system	relative viability EC50
O=C(Nc1ccncc1)C(=O)c1cn(Cc2ccc(Cl)cc2)c2ccccc12	Caco-2	> 10 µM
COc1ccc(CCNCc2ccc(OCc3ccc(Cl)nc3)c(OC)c2)cc1OC	Caco-2	> 10 µM
O=C(CCBr)N1CCN(C(=O)CCBr)CC1	Caco-2	> 10 µM
Nc1ccc(/N=N/c2ccccc2)c(N)n1	Caco-2	> 10 µM
COc1ccc(/C=C/C(=O)/C=C(O)/C=C/c2ccc(OC)c(OC)c2)cc1OC	Caco-2	3.19 µM
COc1ccc(C2CNC(=O)C2)cc1OC1CCCC1 (configuration not stated)	Caco-2	> 10 µM
CCC(=O)OCC(=O)[C@@]1(OC(=O)CC)[C@H](C)C[C@H]2[C@H]3[C@H]([C@@H](O)C[C@@]21C)[C@@]1(C)C=CC(=O)C=C1C[C@H]3Cl [alclometasone-dipropionate]	Caco-2	> 10 µM
O=C(O)C(=O)c1cn(Cc2ccccc2)c2ccc(-c3ccc(OC(F)(F)F)cc3)cc12	Caco-2	> 10 µM
O=C(CCCCC(=O)Nc1c(I)cc(I)c(C(=O)O)c1I)Nc1c(I)cc(I)c(C(=O)O)c1I [iodipamide]	Caco-2	> 10 µM
CC(C)COc1ccc(CNC(=O)N(Cc2ccc(F)cc2)C2CCN(C)CC2)cc1	Caco-2	> 10 µM
CCN1C(C)(C)CC(Oc2ccc(C(=O)Nc3ccc(NC(=O)Nc4cc(C(C)(C)C)on4)cc3)nc2)CC1(C)C	Caco-2	> 10 µM
NC[C@H]1O[C@H](O[C@H]2[C@H](O)[C@@H](O[C@H]3O[C@H](CO)[C@@H](O)[C@H](N)[C@H]3O)[C@H](N)C[C@@H]2N)[C@H](N)C[C@@H]1O	Caco-2	> 10 µM
C[C@H](NC(=O)Cc1cc(F)cc(F)c1)C(=O)N[C@H](C(=O)OC(C)(C)C)c1ccccc1	Caco-2	> 10 µM
Cc1cc(O)c(-c2ccc([C@@H](C)CN)cc2)c2c1[nH]c(=O)c1sccc12	Caco-2	0.21 µM
CC[C@H](CC[C@@H](C)[C@H]1CC[C@H]2[C@@H]3CC=C4C[C@@H](O[C@@H]5O[C@H](CO)[C@@H](O)[C@H](O)[C@H]5O)CC[C@]4(C)[C@H]3CC[C@]12C)C(C)C	Caco-2	> 10 µM
N[C@@H](CC(=O)Nc1ccc(Oc2cc(F)c(F)cc2Br)cc1)C(=O)O	Caco-2	> 10 µM
N=c1ccn2c(n1)O[C@H]1[C@H](O)[C@@H](CO)O[C@H]12 [Cyclocytidine HCl]	Caco-2	> 10 µM
COCCOc1ccc2c(c1)ncn2-c1ccc2cccc(N3CCC(N)CC3)c2n1	Caco-2	> 10 µM
O=C(Nc1ccc([N+](=O)[O-])cc1O)Nc1ccccc1Br	Caco-2	1.2 µM
CCOC(=O)Nc1cc2c(c(N)n1)N=C(c1ccccc1)[C@H](C)N2	Caco-2	0.0055 µM
NC[C@@H]1O[C@H](O[C@@H]2[C@@H](CO)OC(O[C@@H]3[C@@H](O)[C@H](N)C[C@H](N)[C@H]3OC3O[C@H](CN)[C@@H](O)[C@H](O)[C@H]3N)[C@@H]2O)[C@H](N)[C@@H](O)[C@@H]1O (some centres not stated) [NEOMYCIN TRISULFATE]	Caco-2	> 10 µM
O=C(O)c1cc(-c2ccc(F)cc2F)ccc1O	Caco-2	> 10 µM
O=C(NCNC(=O)NC1C(=O)NC(=O)N1CO)NC1C(=O)NC(=O)N1CO (configuration not stated)	Caco-2	> 10 µM
Clc1ccccc1CNC[C@H]1CC[C@H](CNCc2ccccc2Cl)CC1	Caco-2	> 10 µM
N#Cc1c[nH]c2c(C(=O)N3CCN(CCc4ccc(F)cc4)CC3)cccc12	Caco-2	> 10 µM
CN[C@@H](C)CCC=C(C)C [isometheptene-mucate]	Caco-2	> 10 µM
COc1cccc(-c2cc(NCc3ccc4c(c3)OCO4)nc(N)n2)c1	Caco-2	0.707 µM
CC(C)[C@@H](C)/C=C/[C@@H](C)[C@H]1CC[C@H]2/C(=C/C=C3\C[C@@H](O)CC[C@@H]3C)CCC[C@]12C [dihydrotachysterol]	Caco-2	> 10 µM
C[C@]12CC[C@@H]3c4ccc(O)cc4C[C@@H](CCCCCCCCC[S+]([O-])CCCC(F)(F)C(F)(F)F)[C@H]3[C@@H]1CC[C@@H]2O (some centres not stated)	Caco-2	> 10 µM
NC(=O)c1cnc(N[C@@H]2CCCC[C@@H]2N)nc1Nc1cccc(-n2nccn2)c1	Caco-2	2.13 µM
Cc1ccc(C23CNCC2C3)cc1 (configuration not stated)	Caco-2	> 10 µM
O=C(O)[C@H](O)c1ccccc1	Caco-2	> 10 µM

====

# System: Vero E6
# assay text: cell viability relative to DMSO; higher = less toxic
# particulars: 72 h; 100 nM
# cell viability values compiled below
reported property: cell viability (%)

> print(dat)
                                    molecule  endpoint.result
 1  CCN1CCN(Cc2ccc(Nc3ncc(F)c(-c4cc(F)c5nc(C)n(C(C)C)c5c4)n3)nc2)CC1             95.3
 2  CS(=O)(=O)N(Cc1ccco1)C[C@@H](O)Cn1c2ccccc2c2ccccc21             97.6
 3     COc1cccc(OC)c1OCCNC[C@H]1COc2ccccc2O1             99.1
 4  O=C(Nc1ccncc1)C(=O)c1cn(Cc2ccc(Cl)cc2)c2ccccc12             79.4
 5  NC(N)=Nc1nc(CSCCN/C=N/S(=O)(=O)c2ccc(Br)cc2)cs1             97.7
 6  CCc1cnc(N2CCC(c3nc(COc4ccc(-n5cnnn5)cc4)cs3)CC2)nc1              105
 7           CC(C)(C)NC[C@H](O)c1ccc(O)cc1Cl              102
 8            O=c1[nH]ccc2cc(OC3CCNCC3)ccc12             89.6
 9  COc1ccc(-c2oc3c(CC=C(C)C)c(O)cc(O)c3c(=O)c2O)cc1             96.7
10  O=[N+]([O-])c1cn2c(n1)OC[C@@H](OCc1ccc(-c3ccc(OC(F)(F)F)cc3)nc1)C2             93.6
11  COc1ccc(/C=C/C(=O)/C=C(O)/C=C/c2ccc(OC)c(OC)c2)cc1OC              103
12  O=C(O)C(=O)c1cn(Cc2ccccc2)c2ccc(-c3ccc(OC(F)(F)F)cc3)cc12             96.6
13  Cc1c(C)c2c(c(C)c1OC(=O)CCC(=O)O)CC[C@@](C)(CCC[C@H](C)CCC[C@H](C)CCCC(C)C)O2 [D-alpha-tocopheryl-succinate]             97.9
14  CN1C(=O)C(N2CCCCC2)S/C1=C\C(=O)O (stereo not drawn)               97
15  COc1cccc(-c2cc(NCc3ccc4c(c3)OCO4)nc(N)n2)c1              101
16  N[C@@H](CC(=O)Nc1ccc(Oc2cc(F)c(F)cc2Br)cc1)C(=O)O             95.1
17  CN(C)CC/C=C1\c2ccccc2CSc2ccccc21 [dosulepin]              104
18                  Nc1ccc(C(=O)NCC(=O)O)cc1              101

====

# System: U2OS
# assay text: cell viability relative to DMSO; higher = less toxic
# particulars: 72 h; 100 nM
# cell viability values compiled below
reported property: cell viability (%)

> print(dat)
                                   compound  reported.property  endpoint.result
1  C[N+](C)(C)[C@@H](Cc1c[nH]c(=S)[nH]1)C(=O)O [L-ergothioneine]     cell viability             98.2
2  CC(SC(=O)c1cccs1)C(=O)NCC(=O)O (stereo not given) [stepronin]     cell viability             93.5
3  O=C(NCNC(=O)NC1C(=O)NC(=O)N1CO)NC1C(=O)NC(=O)N1CO (stereo not given) [imidurea]     cell viability              102
4  COc1cc(NS(C)(=O)=O)ccc1Nc1c2ccccc2nc2ccccc12 [amsacrine]     cell viability             99.5
5  COc1cc(N2CCC(N3CCN(C)CC3)CC2)ccc1Nc1ncnc(Nc2ccccc2S(=O)(=O)C(C)C)n1 [ASP3026]     cell viability             99.6

====

# System: Caco-2
# assay text: relative viability EC50 (midpoint between 100% and the lowest measured viability); higher = less toxic
# particulars: 72 h
reported property: relative viability EC50

molecule	endpoint result
OB1OCc2cc(Cl)ccc21 [AN2718]	> 10 µM
CC(C)(C)NCC(O)CSc1nc(-c2ccc(C(N)=O)s2)cs1 (centres undefined) [arotinolol]	> 10 µM
Cc1[nH]c2ccccc2c1CCNC(=O)c1cccs1 [CK-636]	> 10 µM
N#CC(C#N)=Cc1ccc(O)c(O)c1 [tyrphostin-AG-18]	> 10 µM
CC(Oc1ccc(O)cc1)(P(=O)(O)O)P(=O)(O)O	> 10 µM
Nc1ncnc(Nc2ccc(Cl)cc2)n1 [chlorazanil]	> 10 µM
CN(NC(=O)CC(=O)NN(C)C(=S)c1ccccc1)C(=S)c1ccccc1 [elesclomol]	0.0174 µM
C[C@@]12C[C@@]3(O)O[C@@H](O1)[C@]1(COC(=O)c4ccccc4)[C@H]3C[C@@]12O[C@@H]1O[C@H](CO)[C@@H](O)[C@H](O)[C@H]1O [paeoniflorin]	> 10 µM
CC[N+](CC)(CCCNC1=CC(=O)C(NCCC[N+](CC)(CC)Cc2ccccc2)=CC1=O)Cc1ccccc1 [benzoquinonium-dibromide]	> 10 µM
